PROCEDURE_TEXT: protease stability score; higher = more stable; yeast display proteolysis, trypsin and chymotrypsin;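 further: relative to predicted unfolded state with 0 unfolded-like and 1 meaning tenfold more protease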
PARAMETER_MEASURED: protease stability score
Give bare numbers.

Give protease stability score for all sequences that follow.
1. DETHEMNEEFLRLLIHAWRTGDEDLLLHLADPNVKVNVGEFHHHGREKFSEWLKHIRFDDMRVHDMRIFDGVAHFITESDVTFNGRRRRVHVRIVVEKVNGKWRLKLFEEE
2. SEDDEDLKFAWDHLLRSWLTGNFDFFKEMFDPHTRLEQGEKEHHGRNAFERYLRELGIDHIKNIHIEDVEIQGDKMRLHGRQHIFVNGREINLEVTYIILKINGQWHLHRVRIK

Reply:
1. 2.66
2. 0.846

Task item: For the sequence TEDKEIAIRVTEHFIEAIYTGDEDRVRDLLDPEARLDVNGVELHGMRWFTFWLRQIRIHNMYIRHTEVQGDKVHVDMEQDVEFNGKRHELKSHFVLLKVNGRWTVKHYNVR , what protease stability score is on record?
Reply: 2.28
